The following molecules are shown together with reported RA [%] at 100 µM MurC values.
# ASSAY_SYSTEM: E. coli MurC (Escherichia coli)
# Sequence (P17952 whole entry): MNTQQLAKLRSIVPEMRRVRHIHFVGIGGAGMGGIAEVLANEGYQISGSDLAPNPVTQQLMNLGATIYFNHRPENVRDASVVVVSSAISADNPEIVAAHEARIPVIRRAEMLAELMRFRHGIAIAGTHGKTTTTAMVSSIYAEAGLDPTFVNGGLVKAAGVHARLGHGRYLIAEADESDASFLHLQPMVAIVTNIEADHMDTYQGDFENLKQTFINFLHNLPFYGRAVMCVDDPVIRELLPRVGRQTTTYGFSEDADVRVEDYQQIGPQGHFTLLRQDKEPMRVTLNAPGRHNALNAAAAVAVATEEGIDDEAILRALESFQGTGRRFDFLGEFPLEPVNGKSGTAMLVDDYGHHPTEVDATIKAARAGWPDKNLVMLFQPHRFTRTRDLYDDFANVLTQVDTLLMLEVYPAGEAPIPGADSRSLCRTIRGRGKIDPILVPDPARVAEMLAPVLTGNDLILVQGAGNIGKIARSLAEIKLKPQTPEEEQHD
# METHOD_SUMMARY: Malachite green inhibition assay, MurC
# Assay type: biochemical
# ASSAY_SETUP: Table S1, PKIS screening
QUANTITY_MEASURED: RA [%] at 100 µM MurC (%)

INSERT INTO assay_data (molecule, reading_unit, observed) VALUES
  ('CN1CCC(C(=O)Nc2n[nH]c3nnc(-c4ccccc4)cc23)CC1.Cl', '%', 74),
  ('Fc1ccc(-c2nc3n(c2-c2ccncc2)CCS3)cc1', '%', 75),
  ('Cc1cc(O)cc(Nc2ccnc3cc(-c4ccccn4)ccc23)c1 [GSK3206866A]', '%', 76),
  ('Nc1nccc(-c2c(-c3ccc(F)cc3)ncn2C2CCNCC2)n1 [SB-220025-R#3]', '%', 81),
  ('CCn1c(-c2nonc2N)nc2cncc(C(=O)N3CC[C@H](N)C3)c21', '%', 77),
  ('CN(C)CCOc1ccc(-c2cc(-c3ccc4c(c3)CCC4=NO)c(-c3ccncc3)o2)cc1.Cl', '%', 31),
  ('Cl.Oc1cccc(-c2nc(-c3ccccc3)[nH]c2-c2ccncc2)c1', '%', 74),
  ('CCn1c(-c2nonc2N)nc2ccccc21 [GW549034X]', '%', 70),
  ('CN(C)CCOc1ccc(-c2nc(-c3ccncc3)c(-c3ccc4c(c3)CC/C4=N\O)[nH]2)cc1', '%', 74),
  ('COc1ccc(-c2cc(-c3c[nH]nc3-c3ccccn3)ccn2)cc1 [GW679410X#4]', '%', 61),
  ('Nc1nccc(-c2c(-c3ccc(F)cc3)ncn2C2CCNCC2)n1 [SB-220025-A]', '%', 98),
  ('Cc1ccc(O)cc1Nc1ccnc2cc(-c3ccccn3)ccc12 [GW440139B]', '%', 73),
  ('NC(=O)c1ccc(-c2nc(-c3ccc4c(c3)OCO4)c(-c3ccccn3)[nH]2)cc1', '%', 59);

###

# ASSAY_SYSTEM: E. coli MurD (Escherichia coli, UniProt P14900)
# Sequence (P14900 whole entry): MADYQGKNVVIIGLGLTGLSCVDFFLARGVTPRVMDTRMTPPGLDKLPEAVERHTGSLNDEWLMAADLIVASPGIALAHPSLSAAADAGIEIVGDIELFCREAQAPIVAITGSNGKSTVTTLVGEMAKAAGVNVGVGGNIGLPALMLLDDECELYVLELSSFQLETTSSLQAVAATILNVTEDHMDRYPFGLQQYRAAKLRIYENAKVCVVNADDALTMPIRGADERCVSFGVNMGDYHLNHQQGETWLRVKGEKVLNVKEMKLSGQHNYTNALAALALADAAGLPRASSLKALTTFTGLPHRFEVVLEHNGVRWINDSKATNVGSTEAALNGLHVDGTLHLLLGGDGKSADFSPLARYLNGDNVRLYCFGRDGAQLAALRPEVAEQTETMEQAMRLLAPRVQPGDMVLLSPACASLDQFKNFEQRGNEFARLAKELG
# METHOD_SUMMARY: biochemical
# ASSAY_SETUP: ligand efficiency, LE = (1.37 × pIC50)/HAC
# Experimental: Inhibition of the Mur ligases was determined using the malachite green assay, with slight modifications. In all cases, the final concentration of DMSO was 5% (v/v). After incubation for 15 min at 37 °C, the enzyme reaction was terminated by addition of 100 µM Biomol green reagent, and the absorbance was measured at 650 nm after 5 min. […] Residual activities were calculated with respect to control assays without the tested compounds, but with the 5% DMSO carrier. […]
The following compounds are shown together with reported LE (MurD) values.
QUANTITY_MEASURED: LE (MurD)

INSERT INTO results (compound, quantity_measured, observed) VALUES
  ('Cc1cc(-c2ccco2)cc(C)c1/C=C/c1cncc(-c2nn[nH]n2)c1 [Compound 1]', 'LE (MurD)', 0.21),
  ('Nc1ccc(C#Cc2cncnc2Nc2ccc(OCc3cccc(F)c3)c(Cl)c2)cc1 [Compound 2]', 'LE (MurD)', 0.17),
  ('CCCN1CCCC(c2ccc(Nc3nc(Nc4cc(F)ccc4C(N)=O)c4cc[nH]c4n3)c(OC)c2)C1 (stereo not shown) [Compound 5]', 'LE (MurD)', 0.16),
  ('N#Cc1ccc(Oc2nccc(-c3c(-c4ccc(F)cc4)ncn3C3CCNCC3)n2)cc1 [Compound 4]', 'LE (MurD)', 0.17);

Every entry's value here was drawn from paper PMC6522912.
